# Target System: Anoctamin-1 (Mus musculus)
# Test Details: mouse ANO1 channel activation – cell-based, HTS, primary screen (AID 623877);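 as to B-score: channel opened by trigger with iodide after compound preincubation; score built on the fluorescence ratio of max minus min over baseline; more negative score means more quench and so TMEM16A activation or potentiation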
# Condition Context: HEK293 TMEM16A/YFP-H148Q/I152L, iodide quench fluorescence, at 10 µM; stronger effect = lower value
The whole screen tested about 340,000 compounds, of which about 1,000 (0.29%) were called active. Shown is part of a subset that was picked to be rich in actives.
Quantity Measured: B-score

- Chem Smiles: "COc1cc(NC(=S)NCc2ccc(S(N)(=O)=O)cc2)cc(OC)c1"
  Target System: "Anoctamin-1 (Mus musculus)"
  Test Result: "inactive"
- Chem Smiles: "CCOC(=O)c1sc(/N=C/C2=C(O)CC(C)(C)CC2=O)c(C(=O)OCC)c1C"
  Target System: "Anoctamin-1 (Mus musculus)"
  Test Result: "-35.4 (active)"
- Chem Smiles: "Cc1nc2cccnc2nc1C"
  Target System: "Anoctamin-1 (Mus musculus)"
  Test Result: "inactive"

###

# Target System: Anoctamin-1 (Mus musculus) (UniProt Q8BHY3)
# Sequence (Q8BHY3 whole entry, looked up): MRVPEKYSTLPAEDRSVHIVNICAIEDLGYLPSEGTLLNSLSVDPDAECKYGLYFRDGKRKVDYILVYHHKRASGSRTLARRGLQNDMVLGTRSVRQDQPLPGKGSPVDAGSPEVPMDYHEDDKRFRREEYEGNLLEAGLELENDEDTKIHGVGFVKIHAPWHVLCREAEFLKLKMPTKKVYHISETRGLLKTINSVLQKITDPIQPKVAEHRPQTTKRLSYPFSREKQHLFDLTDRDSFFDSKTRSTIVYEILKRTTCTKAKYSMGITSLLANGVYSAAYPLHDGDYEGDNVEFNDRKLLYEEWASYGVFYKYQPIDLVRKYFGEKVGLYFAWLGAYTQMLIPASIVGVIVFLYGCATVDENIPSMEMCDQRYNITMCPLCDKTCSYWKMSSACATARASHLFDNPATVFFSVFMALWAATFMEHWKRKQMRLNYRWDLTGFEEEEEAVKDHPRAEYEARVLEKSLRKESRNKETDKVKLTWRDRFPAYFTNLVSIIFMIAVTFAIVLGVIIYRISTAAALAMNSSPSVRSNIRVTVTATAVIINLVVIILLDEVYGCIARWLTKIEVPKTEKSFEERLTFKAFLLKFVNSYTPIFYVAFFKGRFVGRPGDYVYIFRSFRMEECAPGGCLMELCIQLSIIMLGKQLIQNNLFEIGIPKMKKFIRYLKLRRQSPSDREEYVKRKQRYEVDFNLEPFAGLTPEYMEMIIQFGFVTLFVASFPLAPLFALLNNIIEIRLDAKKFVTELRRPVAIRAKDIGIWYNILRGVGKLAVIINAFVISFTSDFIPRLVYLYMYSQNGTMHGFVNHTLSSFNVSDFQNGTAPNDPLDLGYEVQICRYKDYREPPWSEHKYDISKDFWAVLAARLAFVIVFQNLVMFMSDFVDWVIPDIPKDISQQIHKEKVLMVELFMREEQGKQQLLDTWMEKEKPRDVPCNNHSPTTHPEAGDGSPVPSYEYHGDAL
# Test Details: mouse ANO1 channel activation – cell-based, HTS, primary screen (AID 623877)
# Condition Context: HEK293 TMEM16A/YFP-H148Q/I152L, iodide quench fluorescence, at 10 µM
Among all 340,000 compounds or so, about 1,000 (0.29%) were called active.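 The calls were made as follows: active = fluorescence-ratio B-score plate-corrected deviation score at least 3 library SD below zero, with starting fluorescence score within 5 deviations; inactive = the rest.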 For the sample, actives were picked, then their nearest neighbours and some compounds at random.
Reply using exactly one outcome from active, inactive

Worked set:
- Compound: "CCNC(=O)N1CCCC(C(=O)c2ccc(-c3ccccc3)cc2)C1 (stereo not given)"
  Assigned Category: "inactive"
- Compound: "Cc1cccc(NC(=S)Nc2ccc(Cl)c(Cl)c2)c1"
  Assigned Category: "inactive"

## Input So what was the verdict on CCN(CCCCOC(=O)c1ccc(OC)c(OC)c1)C(C)Cc1ccc(OC)cc1 (stereo not given) in this test?
## Output active

## Input Next record, please: "COc1ccc(Cn2c(=O)cc(C)[nH]c2=S)cc1"
## Output inactive

## Input Same question for "NS(=O)(=O)c1ccc(N=Cc2ccc(Br)s2)cc1" please.
## Output inactive

## Input What would you report for CC(C[N+](C)(C)C)OC(N)=O (stereo not given) ?
## Output inactive

###

# Target System: Anoctamin-1 (Mus musculus) (UniProt Q8BHY3)
# Test Details: mouse ANO1 channel activation – cell-based, HTS, primary screen (AID 623877)
# Condition Context: HEK293 TMEM16A/YFP-H148Q/I152L, iodide quench fluorescence, at 10 µM
Screen size: about 340,000 compounds; about 1,000 (0.29%) were called active.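 The calls were made as follows: active = fluorescence-ratio B-score plate-corrected deviation score at least 3 library SD below zero, with starting fluorescence score within 5 deviations; inactive = the rest.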 The list comes from a sample in which actives are over-represented; it also holds close analogues and randomly drawn compounds.
Bench note: report the call from true = active, false = inactive

Would you please look over these solved cases?
- Molecule: "COc1ccc(Cl)cc1NC(=O)Cn1nc(-c2ccc(C)cc2)n(C)c1=S"
  Target System: "Anoctamin-1 (Mus musculus) (UniProt Q8BHY3)"
  Assigned Category: "false"
- Molecule: "Cc1cc(C)c(-c2c(O)c3ccccc3n(C)c2=O)c(C)c1"
  Target System: "Anoctamin-1 (Mus musculus) (UniProt Q8BHY3)"
  Assigned Category: "false"
- Molecule: "O=C1c2ccccc2C(=O)N1CCCCCCN1C(=O)c2ccccc2C1=O"
  Target System: "Anoctamin-1 (Mus musculus) (UniProt Q8BHY3)"
  Assigned Category: "false"
- Molecule: "CC(=O)OC(C)C[N+](C)(C)C (centres undefined)"
  Target System: "Anoctamin-1 (Mus musculus) (UniProt Q8BHY3)"
  Assigned Category: "true"
- Molecule: "CC(=O)Oc1ccc(OC(C)=O)c2c1C1C=CC2CC1"
  Target System: "Anoctamin-1 (Mus musculus) (UniProt Q8BHY3)"
  Assigned Category: "false"

## Input Identify the outcome logged in this assay for the molecule shown: "N#Cc1c(NC(=O)CCCN2C(=O)c3ccccc3C2=O)oc(-c2ccccc2)c1-c1ccccc1"
## Output true

## Input Same again, this time with CC1C(=O)NC(=O)C1c1ccccc1 (centres undefined)
## Output false

## Input Entry "CC(=O)C[C@H](O)CC(=O)[C@@H]1OC(=O)[C@@H](C)C/C=C\Cc2ccccc21" please
## Output false
